Target: Human full-length diacylglycerol:acylCoA acyltransferase 1 (DGAT-1) (Homo sapiens)
Construct: Human full-length diacylglycerol:acylCoA acyltransferase 1 (DGAT-1) was expressed in Sf9 insect cells; made in house; host or cells: Sf9 insect cells (baculovirus)
Sequence (O75907 1-488): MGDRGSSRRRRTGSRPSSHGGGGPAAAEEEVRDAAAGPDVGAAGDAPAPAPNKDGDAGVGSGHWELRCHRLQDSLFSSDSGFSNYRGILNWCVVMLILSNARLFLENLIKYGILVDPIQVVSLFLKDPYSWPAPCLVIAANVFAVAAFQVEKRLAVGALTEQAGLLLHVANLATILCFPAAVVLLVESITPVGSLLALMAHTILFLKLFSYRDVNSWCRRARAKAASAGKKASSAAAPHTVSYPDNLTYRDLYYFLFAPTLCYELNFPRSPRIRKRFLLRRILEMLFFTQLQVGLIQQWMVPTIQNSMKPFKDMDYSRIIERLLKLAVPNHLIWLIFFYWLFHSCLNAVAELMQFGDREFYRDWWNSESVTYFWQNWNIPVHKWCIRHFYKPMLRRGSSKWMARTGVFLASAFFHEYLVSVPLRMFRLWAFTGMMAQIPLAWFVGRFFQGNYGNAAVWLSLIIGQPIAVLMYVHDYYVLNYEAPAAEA
Assay: In vitro assay for DGAT-1 inhibition ([14C]decanoylCoA, Sf9 membrane fraction)
Format: biochemical
Details: inhibition range where the assay was performed on a compound more than once; read-out: IC50 range
pIC50: −log10 of the molar value.
I'd be grateful if you could share measured pIC50 for these entries.

Request: Which pIC50 value is on record for C[C@@H]1CN(c2ccc([C@H]3CC[C@H](CC#N)CC3)cc2)C(=O)c2c(N)ncnc2O1 ?
Response: 7.32 to 7.52

Request: Which pIC50 value is on record for C[C@@H]1CN(c2ccc([C@H]3CC[C@H](CC(N)=O)CC3)cc2)C(=O)c2c(N)ncnc2O1 ?
Response: 7.17 to 7.94

Request: Quick one: pIC50 for CS(=O)(=O)NC(=O)C[C@H]1CC[C@H](c2ccc(N3CCOc4ncnc(N)c4C3=O)cc2)CC1 ?
Response: 7.12 to 7.47

Request: Look at this compound and give its reported pIC50. CCC1CN(c2ccc(C3CCC(CC(=O)O)CC3)cc2)C(=O)c2c(N)ncnc2O1 (stereo not drawn)
Response: 5.78 to 5.97

Request: May I ask what pIC50 has been recorded for COC(=O)C1CCC(c2ccc(N3CCOc4ncnc(N)c4C3=O)cc2)CC1 (stereo not drawn) ?
Response: 7.31 to 7.34

Request: Reported pIC50 for Nc1ncnc2c1C(=O)N(c1ccc(C3CCC(CC(=O)O)CC3)cc1F)CCO2 (stereo not drawn) : what is it?
Response: 7.05 to 7.54

Request: Any idea what its pIC50 is? The compound is CC1COc2ncnc(N)c2C(=O)N1c1ccc(C2CCC(CC(=O)O)CC2)cc1 (stereo not drawn)
Response: 7.11 to 7.87

Request: Form field: reported pIC50 of Nc1ncnc2c1C(=O)N(c1ccc([C@@H]3CC[C@@H]4[C@@H](CC(=O)O)CC[C@@H]43)cc1)CCO2 (racemic)
Response: 7.57 to 8.52

Request: # lookup: pIC50 of C[C@@H]1CN(c2ccc(C3CCC(CC(N)=O)CC3)c(F)c2)C(=O)c2c(N)ncnc2O1 (stereo partly drawn)
Response: 7.70 to 8.14

* * *

Task for the reader: assign each of the following compounds its reported IC50.
biological target: Human full-length diacylglycerol:acylCoA acyltransferase 1 (DGAT-1) (Homo sapiens, UniProt O75907); construct: Human full-length diacylglycerol:acylCoA acyltransferase 1 (DGAT-1) was expressed in Sf9 insect cells; made in house; host or cells: Sf9 insect cells (baculovirus); assay: In vitro assay for DGAT-1 inhibition ([14C]decanoylCoA, Sf9 membrane fraction); assay type: biochemical; conditions: Examples 24-25 table; read-out: DGAT-1 IC50
# number only, unit nM dropped from output

Request: Reported IC50, compound C[C@@H]1CN(c2ccc([C@H]3CC[C@@H](CC(=O)O)CC3)c(F)c2)C(=O)c2c(N)ncnc2O1 : ____
Response: 4.6

Request: Suppose we examine the compound C[C@@H]1CN(c2ccc([C@H]3CC[C@H](CC(=O)O)CC3)c(F)c2)C(=O)c2c(N)ncnc2O1 ; what IC50 value has been reported?
Response: 12.3

* * *

target: Human full-length diacylglycerol:acylCoA acyltransferase 1 (DGAT-1) (Homo sapiens, UniProt O75907); construct: Human full-length diacylglycerol:acylCoA acyltransferase 1 (DGAT-1) was expressed in Sf9 insect cells; made in house; host or cells: Sf9 insect cells (baculovirus); assay: In vitro assay for DGAT-1 inhibition ([14C]decanoylCoA, Sf9 membrane fraction); format: biochemical; details: apparent IC50, eight inhibitor concentrations 10 μM to 3 nM; read-out: IC50
For each of the compounds below, state its IC50.

Request: Give the measured IC50 of CCC1CN(c2ccc(C3CCC(CC(=O)O)CC3)cc2)C(=O)c2c(N)ncnc2O1 (centres unmarked) .
Response: 1330 nM

Request: Item Nc1ncnc2c1C(=O)N(c1ccc(C3=CCC(CC(=O)O)CC3)cc1)CCO2 (single isomer, unassigned; (+)) has what recorded IC50?
Response: 36.4 nM

Request: Given C[C@@H]1CN(c2ccc(C3CCC(CC#N)CC3)c(F)c2)C(=O)c2c(N)ncnc2O1 (some centres unmarked) , state its recorded IC50.
Response: 12.9 nM

Request: Consider the compound shown here: Nc1ncnc2c1C(=O)N(c1ccc([C@@H]3CC[C@@H]4[C@@H](CC(=O)O)CC[C@@H]43)cc1)CCO2 (racemic) What is its recorded IC50?
Response: < 10 nM

Request: Item CC1COc2ncnc(N)c2C(=O)N1c1ccc(C2CCC(CC(=O)O)CC2)cc1 (centres unmarked) has what recorded IC50?
Response: 27.3 nM

Request: For the compound shown here, Nc1ncnc2c1C(=O)N(c1ccc(C3CCC(C(=O)O)CC3)cc1)CCO2 (centres unmarked) , give the reported IC50.
Response: 7.8 nM

Request: # IC50 lookup, item COC(=O)CC1CC=C(c2ccc(N3CCOc4ncnc(N)c4C3=O)cc2)CC1 (racemic)
Response: 84.3 nM

Request: What IC50 value was documented for this compound, C[C@@H]1CN(c2ccc(C3CCC(CC(N)=O)CC3)c(F)c2)C(=O)c2c(N)ncnc2O1 (some centres unmarked) ?
Response: 11.3 nM

Request: Please look up its IC50: C[C@@H]1CN(c2ccc([C@H]3CC[C@H](CC#N)CC3)cc2)C(=O)c2c(N)ncnc2O1
Response: 38.4 nM

Request: Which IC50 is listed for Nc1ncnc2c1C(=O)N(c1ccc([C@H]3C[C@H]4C[C@@H]3C3C(C(=O)O)C34)cc1)CCO2 (mixture of isomers) ?
Response: 34.7 nM

Request: State the recorded IC50 for this entry: COC(=O)C1CCC(c2ccc(N3CCOc4ncnc(N)c4C3=O)cc2)CC1 (centres unmarked)
Response: 47.3 nM

* * *

biological target: Human full-length diacylglycerol:acylCoA acyltransferase 1 (DGAT-1) (Homo sapiens, UniProt O75907); construct: Human full-length diacylglycerol:acylCoA acyltransferase 1 (DGAT-1) was expressed in Sf9 insect cells; made in house; host or cells: Sf9 insect cells (baculovirus); assay: In vitro assay for DGAT-1 inhibition ([14C]decanoylCoA, Sf9 membrane fraction); type: biochemical; conditions: inhibition range where the assay was performed on a compound more than once; read-out: IC50 range
Test Readout: IC50

Request: Given the compound Nc1ncnc2c1C(=O)N(c1ccc(C3=CCC(CC(=O)O)CC3)cc1)CCO2 (single isomer, unassigned; (+)) , what is its reported IC50?
Response: 33.8 to 39.3 nM

Request: Data request, read-out IC50, for Nc1ncnc2c1C(=O)N(c1ccc([C@H]3C[C@H]4C[C@@H]3C3C(C(=O)O)C34)cc1)CCO2 (mixture of isomers)
Response: 26.7 to 58.6 nM

Request: Please give the measured IC50 for this compound: C[C@@H]1CN(c2ccc(C3CCC(CC#N)CC3)c(F)c2)C(=O)c2c(N)ncnc2O1 (stereo partly shown)
Response: 4.5 to 22.2 nM

Request: Which IC50 is reported for this compound? Nc1ncnc2c1C(=O)N(c1ccc(C3CCC(C(=O)O)CC3)cc1)CCO2 (stereo not shown)
Response: 5.8 to 10.5 nM

* * *

Molecular target: Human full-length diacylglycerol:acylCoA acyltransferase 1 (DGAT-1) (Homo sapiens, UniProt O75907)
Construct: Human full-length diacylglycerol:acylCoA acyltransferase 1 (DGAT-1) was expressed in Sf9 insect cells; made in house; host or cells: Sf9 insect cells (baculovirus)
Assay: In vitro assay for DGAT-1 inhibition ([14C]decanoylCoA, Sf9 membrane fraction)
Format: biochemical
Details: Examples 17-23 table; read-out: DGAT-1 IC50
Description: Human full-length diacylglycerol:acylCoA acyltransferase 1 (DGAT-1) was expressed in Sf9 insect cells which are then lysed and a crude membrane fraction (105,000×g pellet) was prepared. The cells were cultured as follows. […] Crude DGAT-1 microsomes were prepared as follows. […] The microsome concentration was determined using Bio-Rad Protein DC Protein Assay. […]
Cut-off 10 nM on IC50: below means Yes, at or above means No.

Request: I'd appreciate it if you could check whether Cc1cc(C2CCC(CC(=O)O)CC2)ccc1N1CCOc2ncnc(N)c2C1=O (stereo not shown) has IC50 smaller than 10 nM.
Response: No

Request: Problem: For the compound C[C@@H]1CN(c2ccc(C3CCC(CC(=O)O)CC3)cc2F)C(=O)c2c(N)ncnc2O1 (stereo partly shown) , is IC50 under 10 nM?
Response: No

Request: Strictly below 10 nM: is that where IC50 of Nc1ncnc2c1C(=O)N(c1ccc(C3CCC(CC(=O)O)CC3)c(Cl)c1)CCO2 (stereo not shown) sits?
Response: Yes

Request: Is IC50 of Cc1cc(N2CCOc3ncnc(N)c3C2=O)ccc1C1CCC(CC(=O)O)CC1 (stereo not shown) strictly below 10 nM?
Response: No

Request: Is IC50 strictly under 10 nM for the entry Cc1cc(N2C[C@@H](C)Oc3ncnc(N)c3C2=O)ccc1C1CCC(CC(=O)O)CC1 (stereo partly shown) ?
Response: No

Request: IC50 under 10 nM? Item: Nc1ncnc2c1C(=O)N(c1ccc(C3CCC(CC(=O)O)CC3)c(F)c1)CCO2 (stereo not shown)
Response: Yes

Request: Please determine if C[C@@H]1CN(c2ccc(C3CCC(CC(=O)O)CC3)c(F)c2)C(=O)c2c(N)ncnc2O1 (stereo partly shown) is below 10 nM in terms of IC50.
Response: Yes
